target: Metabotropic glutamate receptor 1 (Homo sapiens, UniProt Q13255); experiment: Negative allosteric modulation of human mGluR1 expressed in HEK293A cells assessed as inhibition of glutamate-induced calcium mobilization
Sequence (Q13255 whole entry): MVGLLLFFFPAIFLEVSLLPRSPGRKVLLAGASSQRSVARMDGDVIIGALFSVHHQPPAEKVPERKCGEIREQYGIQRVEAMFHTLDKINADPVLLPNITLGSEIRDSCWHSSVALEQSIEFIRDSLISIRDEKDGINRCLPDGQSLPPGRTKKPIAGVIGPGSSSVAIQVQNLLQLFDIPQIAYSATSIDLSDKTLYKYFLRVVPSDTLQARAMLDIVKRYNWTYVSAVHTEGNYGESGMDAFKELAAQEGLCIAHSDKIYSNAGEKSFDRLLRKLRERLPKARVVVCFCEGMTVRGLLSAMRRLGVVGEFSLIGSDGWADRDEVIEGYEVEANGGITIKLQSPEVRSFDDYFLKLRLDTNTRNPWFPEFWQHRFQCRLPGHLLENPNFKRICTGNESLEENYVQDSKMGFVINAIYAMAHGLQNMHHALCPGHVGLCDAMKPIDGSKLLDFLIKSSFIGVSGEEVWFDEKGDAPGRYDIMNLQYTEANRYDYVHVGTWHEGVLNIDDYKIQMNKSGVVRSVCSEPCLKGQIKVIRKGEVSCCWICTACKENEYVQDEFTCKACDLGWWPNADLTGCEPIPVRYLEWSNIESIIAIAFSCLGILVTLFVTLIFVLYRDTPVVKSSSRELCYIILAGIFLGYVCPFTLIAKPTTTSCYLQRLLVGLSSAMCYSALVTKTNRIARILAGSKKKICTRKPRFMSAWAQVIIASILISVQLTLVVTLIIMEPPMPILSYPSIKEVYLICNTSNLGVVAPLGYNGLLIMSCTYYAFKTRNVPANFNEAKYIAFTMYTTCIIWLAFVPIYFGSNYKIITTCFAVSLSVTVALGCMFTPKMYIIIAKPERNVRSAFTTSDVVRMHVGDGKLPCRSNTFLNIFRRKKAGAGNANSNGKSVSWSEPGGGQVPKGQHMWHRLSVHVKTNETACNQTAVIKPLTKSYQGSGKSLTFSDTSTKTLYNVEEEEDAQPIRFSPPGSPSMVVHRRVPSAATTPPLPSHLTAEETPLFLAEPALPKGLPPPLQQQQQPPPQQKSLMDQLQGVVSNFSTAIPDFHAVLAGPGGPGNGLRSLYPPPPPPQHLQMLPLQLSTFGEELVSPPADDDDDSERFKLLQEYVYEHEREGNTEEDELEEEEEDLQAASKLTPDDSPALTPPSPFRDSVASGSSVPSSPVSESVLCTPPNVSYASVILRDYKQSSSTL
pIC50: −log10 of the molar value.
Quantity Name: pIC50

Study these solved cases before continuing.
Give the reported pIC50 for C[C@@H]1CN(c2ccccn2)CCN1C(=O)C1CCCCCC1 (system: Metabotropic glutamate receptor 1 (Homo sapiens, UniProt Q13255)).
< 5.00

Entry C[C@@H]1CN(C(=O)C2CCCCC2)CCN1c1ccccn1 please
< 4.52

Thanks! And C[C@@H]1CN(c2ccccn2)CCN1C(=O)C1CCCCC1 ?
< 5.00

How about this compound: C[C@@H]1CN(C(=O)C23CC4CC(CC(C4)C2)C3)CCN1c1ncccn1
< 5.00

Now the compound C[C@@H]1CN(C(=O)C2CCCCCC2)CCN1c1ccccn1
< 5.00

Further cases:
Query the reported pIC50 for Metabotropic glutamate receptor 1 (Homo sapiens, UniProt Q13255); item: C[C@@H]1CN(C(=O)C2CCCCCCC2)CCN1c1ccccn1
< 5.00

Subsequent entry: C[C@@H]1CN(c2ccccn2)CCN1C(=O)C1CC1
< 4.52

Try the compound C[C@@H]1CN(C(=O)[C@H]2CC[C@H](C(C)(C)C)CC2)CCN1c1ccccn1
< 5.00

// query: C[C@@H]1CN(C(=O)C23CC4CC(CC(C4)C2)C3)CCN1c1cnccn1
< 5.00
